# protocol: Cytotoxicity (CC50) in TZM-bl cells
# Assay type: cell-based
# condition-info: human; TZM-bl cells (Table 3); read-out: CC50
Each item that follows carries a reported CC50.
property-label: CC50

>>> result("Cc1nnc(C(C)C)n1C1CCN(CCC(NC(=O)C2CCC(F)(F)CC2)c2cccs2)CC1 (stereo not drawn) [Compound 1]")
"> 100 µg/mL"
>>> result("CC(=O)N[C@@H](CCN1C2CCC1CC(n1c(C)nc3c1CCN(C(C)=O)C3)C2)c1ccc(F)s1 (stereo partly drawn) [Compound 131]")
"> 200 µg/mL"
>>> result("Cc1nnc(C(C)C)n1C1CCN(CC[C@H](NC(=O)C2CCC(F)(F)CC2)c2cccs2)CC1 [Compound 13]")
"> 100 µg/mL"
